- Study target: T1, extracellular domain of human CD73 protein (CD73-ECD), C-terminus polyhistidine-tagged (UniProt P21589 27-547)
- T1 chain: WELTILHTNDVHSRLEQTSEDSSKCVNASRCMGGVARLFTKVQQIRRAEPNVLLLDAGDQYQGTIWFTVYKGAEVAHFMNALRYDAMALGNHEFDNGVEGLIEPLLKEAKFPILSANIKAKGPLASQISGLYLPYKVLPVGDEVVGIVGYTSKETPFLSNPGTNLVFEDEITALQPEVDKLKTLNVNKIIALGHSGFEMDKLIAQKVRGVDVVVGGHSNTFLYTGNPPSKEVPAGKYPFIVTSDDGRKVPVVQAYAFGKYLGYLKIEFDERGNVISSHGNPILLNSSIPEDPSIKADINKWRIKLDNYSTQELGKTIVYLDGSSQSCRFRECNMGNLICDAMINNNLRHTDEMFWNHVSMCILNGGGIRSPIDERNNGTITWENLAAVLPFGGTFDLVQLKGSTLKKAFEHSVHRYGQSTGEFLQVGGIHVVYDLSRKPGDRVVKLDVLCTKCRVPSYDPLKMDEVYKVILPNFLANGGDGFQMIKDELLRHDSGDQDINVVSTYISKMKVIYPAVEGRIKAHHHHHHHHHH
- Test protocol: ELISA
Item-by-item account of EC50
Numeric answer only, unit pM assumed.

Name the recorded EC50 for Hu001c-25 (antibody, V domains shown) VH: QVQLVQSGAEVKKPGASVKVSCKASGYTFTNYYIYWVRQAPGQRLEWIGWIYPGNLNIKYNEKFKGRVTITADKSASTAYMELSSLRSEDTAVYYCARDDNYAWFAYWGQGTLVTVSS VL: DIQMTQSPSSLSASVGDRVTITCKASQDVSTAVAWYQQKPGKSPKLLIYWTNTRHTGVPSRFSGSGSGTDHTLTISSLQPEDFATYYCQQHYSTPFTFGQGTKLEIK . 33

Next record, please: Hu001c-21 (antibody, V domains shown) VH: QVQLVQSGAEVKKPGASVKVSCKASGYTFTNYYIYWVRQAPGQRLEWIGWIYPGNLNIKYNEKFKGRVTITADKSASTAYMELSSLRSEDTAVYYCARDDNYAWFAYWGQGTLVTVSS VL: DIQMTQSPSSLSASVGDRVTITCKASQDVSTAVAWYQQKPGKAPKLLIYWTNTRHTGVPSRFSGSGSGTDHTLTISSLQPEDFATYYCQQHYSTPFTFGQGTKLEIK 20

Next record, please: Hu001c-14 (antibody, V domains shown) VH: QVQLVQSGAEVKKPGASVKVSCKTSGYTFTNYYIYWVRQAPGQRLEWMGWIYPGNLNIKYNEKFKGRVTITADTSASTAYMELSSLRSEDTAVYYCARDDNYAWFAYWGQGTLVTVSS VL: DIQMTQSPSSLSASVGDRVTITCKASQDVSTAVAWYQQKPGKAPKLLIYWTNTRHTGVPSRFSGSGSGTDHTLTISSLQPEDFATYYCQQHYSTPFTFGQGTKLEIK 108

Next record, please: Hu002c-7 (antibody, V domains shown) VH: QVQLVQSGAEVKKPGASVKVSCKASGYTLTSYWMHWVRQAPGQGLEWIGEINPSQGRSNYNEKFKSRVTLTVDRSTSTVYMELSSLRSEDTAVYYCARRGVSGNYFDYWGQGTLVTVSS VL: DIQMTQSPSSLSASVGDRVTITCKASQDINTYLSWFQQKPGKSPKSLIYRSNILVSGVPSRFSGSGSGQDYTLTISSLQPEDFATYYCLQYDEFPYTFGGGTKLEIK 98

Next record, please: Hu002c-16 (antibody, V domains shown) VH: QVQLVQSGAEVKKPGASVKVSCKASGYTLTSYWMHWVKKAPGQGLEWIGEINPSQGRSNYNEKFKSKVTLTVDRSTSTVYMELSSLRSEDTAVYYCARRGVSGNYFDYWGQGTLVTVSS VL: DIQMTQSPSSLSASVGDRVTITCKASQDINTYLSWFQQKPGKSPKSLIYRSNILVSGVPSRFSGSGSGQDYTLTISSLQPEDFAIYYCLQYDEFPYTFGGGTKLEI 99
